test system: THP-1; assay: Antiproliferative activity against human THP-1 cells assessed as inhibition of cell growth incubated for 72 hrs by MTT assay; type: functional, cell-based; conditions: THP-1, 72 h
pIC50: −log10 of the molar value.
READOUT_LABEL: pIC50

Example cases with answers are listed next.
In [3]: df
Out[3]:
                             input_smiles  numeric_result
0          O=C(/C=C/C=C/c1ccccc1)c1cnccn1            4.85
1          CCc1nccnc1C(=O)/C=C/c1ccccc1Cl            5.35
2           Cc1cccc(/C=C/C(=O)c2cnccn2)c1            4.69
3  CCc1nccnc1C(=O)/C=C/c1ccc(C(F)(F)F)cc1            5.52
4             Cc1nccnc1C(=O)/C=C/c1ccccc1            5.75

[I] Cc1nccnc1C(=O)/C=C/c1cccc(Cl)c1
[II] CCc1nccnc1C(=O)/C=C/c1ccc(-c2ccccc2)cc1
# query: argmin of pIC50 over I and II To answer, give the label that identifies your chosen option.
II

---

tested on: THP-1; assay: Antiproliferative activity against human THP-1 cells assessed as inhibition of cell growth incubated for 72 hrs by MTT assay; assay type: functional, cell-based; conditions: THP-1, 72 h
READOUT_LABEL: IC50 (µM)

>>> print(df.to_string())
                             input_smiles  numeric_result
0  CCc1nccnc1C(=O)/C=C/c1ccc(C(C)(C)C)cc1            10.2
1            O=C(/C=C/c1ccccc1Cl)c1cnccn1            11.8

[P] O=C(/C=C/c1ccc(Cl)cc1)c1cnccn1
[Q] Cc1nccnc1C(=O)/C=C/c1cccc(F)c1
# query: argmin of IC50 over P and Q To answer, give the label that identifies your chosen option.
Q
(Q: 2.12 µM, P: 10.2 µM)

[P] O=C(/C=C/c1ccc(Cl)cc1Cl)c1cnccn1
[Q] CCc1nccnc1C(=O)/C=C/c1cccc(Cl)c1Cl
Out of P and Q , name the one with the higher IC50. To answer, give the label that identifies your chosen option.
Q
(Q: 14.5 µM, P: 6.54 µM)

---

This listing pairs compounds with measured pIC50.
system: KG-1; test: Antiproliferative activity against human KG-1 cells assessed as inhibition of cell growth incubated for 72 hrs by MTT assay; assay type: functional, cell-based; conditions: KG-1, 72 h
Please express pIC50 as -log10 of the molar concentration.

Example cases with answers are listed next.
>>> df
                              input_smiles  assayed_system  readout_label  numeric_result
0             CCc1nccnc1C(=O)/C=C/c1ccccn1            KG-1          pIC50            6.20
1       Cc1nccnc1C(=O)/C=C/C=C/c1ccc(F)cc1            KG-1          pIC50            4.56
2           O=C(/C=C/c1ccc(Cl)cc1)c1cnccn1            KG-1          pIC50            4.91
3  Cc1nccnc1C(=O)/C=C/c1ccc(S(C)(=O)=O)cc1            KG-1          pIC50            5.36
4          CCc1nccnc1C(=O)/C=C/c1cccc(F)c1            KG-1          pIC50            5.46

# pIC50 lookup, item Cc1nccnc1C(=O)/C=C/c1csc2ccccc12
5.81

# pIC50 lookup, item Cc1nccnc1C(=O)/C=C/c1cccc(Br)c1
7.10

# pIC50 lookup, item CCc1nccnc1C(=O)/C=C/c1ccc(SC)cc1
5.03

# pIC50 lookup, item CCc1nccnc1C(=O)/C=C/c1cc2ccccc2o1
4.65
